Assay Explanation: qHTS of pediatric cancer cell lines to identify multiple opportunities for drug repurposing: Primary screen for RD cells (AID 1347104); further: nearly all actives have a fitted effect of over 55% in size
Experimental Setup: RD rhabdomyosarcoma viability, CellTiter-Glo luminescence, 48 h; series mostly up to 46 µM
Inconclusive results are not listed. Active and inactive are the calls of the source. The call rests on the fitted dose curve; in most records, active means well fitted cell-killing curve with a large enough effect; inconclusive means small, poorly fitted or top-dose-only effect; inactive means flat fitted curve, though single readings scatter.
Outcomes you can answer with include only these: Yes = active, No = inactive

These recorded examples may help you get a feel for the data.
Cc1ccc2c(c1)C1CN(C)CCC1N2 (stereo not given)
No
O=C(NC(O)C(Cl)(Cl)Cl)NC(O)C(Cl)(Cl)Cl (stereo not given)
No
CC(C)(C)NCC(O)c1cc(Cl)c(N)c(Cl)c1 (stereo not given)
No
N[C@@H](Cc1ccc(Oc2cc(I)c(O)c(I)c2)c(I)c1)C(=O)O
No
CC[C@@H](CO)NC(=O)[C@@H]1C=C2c3cccc4c3c(cn4C)C[C@H]2N(C)C1
No
c1ccc2c(c1)OCC(C1=NCCN1)O2 (stereo not given)
Yes
C[C@H]1O[C@@H](O[C@H]2[C@@H](O)C[C@H](O[C@H]3[C@@H](O)C[C@H](O[C@H]4CC[C@@]5(C)[C@H](CC[C@@H]6[C@@H]5CC[C@]5(C)[C@@H](C7=CC(=O)OC7)CC[C@]65O)C4)O[C@@H]3C)O[C@@H]2C)C[C@H](O)[C@@H]1O
Yes
Oc1ccccc1-c1ccccc1
No
Clc1cccc(N2CCNCC2)c1
No

Tell me the recorded outcome of this test for COc1ccccc1N1CCNCC1 . No
